Origin of the recorded values: ChEMBL document CHEMBL5137066

Molecular target: Epidermal growth factor receptor (Homo sapiens, UniProt P00533)
Sequence (P00533 whole entry): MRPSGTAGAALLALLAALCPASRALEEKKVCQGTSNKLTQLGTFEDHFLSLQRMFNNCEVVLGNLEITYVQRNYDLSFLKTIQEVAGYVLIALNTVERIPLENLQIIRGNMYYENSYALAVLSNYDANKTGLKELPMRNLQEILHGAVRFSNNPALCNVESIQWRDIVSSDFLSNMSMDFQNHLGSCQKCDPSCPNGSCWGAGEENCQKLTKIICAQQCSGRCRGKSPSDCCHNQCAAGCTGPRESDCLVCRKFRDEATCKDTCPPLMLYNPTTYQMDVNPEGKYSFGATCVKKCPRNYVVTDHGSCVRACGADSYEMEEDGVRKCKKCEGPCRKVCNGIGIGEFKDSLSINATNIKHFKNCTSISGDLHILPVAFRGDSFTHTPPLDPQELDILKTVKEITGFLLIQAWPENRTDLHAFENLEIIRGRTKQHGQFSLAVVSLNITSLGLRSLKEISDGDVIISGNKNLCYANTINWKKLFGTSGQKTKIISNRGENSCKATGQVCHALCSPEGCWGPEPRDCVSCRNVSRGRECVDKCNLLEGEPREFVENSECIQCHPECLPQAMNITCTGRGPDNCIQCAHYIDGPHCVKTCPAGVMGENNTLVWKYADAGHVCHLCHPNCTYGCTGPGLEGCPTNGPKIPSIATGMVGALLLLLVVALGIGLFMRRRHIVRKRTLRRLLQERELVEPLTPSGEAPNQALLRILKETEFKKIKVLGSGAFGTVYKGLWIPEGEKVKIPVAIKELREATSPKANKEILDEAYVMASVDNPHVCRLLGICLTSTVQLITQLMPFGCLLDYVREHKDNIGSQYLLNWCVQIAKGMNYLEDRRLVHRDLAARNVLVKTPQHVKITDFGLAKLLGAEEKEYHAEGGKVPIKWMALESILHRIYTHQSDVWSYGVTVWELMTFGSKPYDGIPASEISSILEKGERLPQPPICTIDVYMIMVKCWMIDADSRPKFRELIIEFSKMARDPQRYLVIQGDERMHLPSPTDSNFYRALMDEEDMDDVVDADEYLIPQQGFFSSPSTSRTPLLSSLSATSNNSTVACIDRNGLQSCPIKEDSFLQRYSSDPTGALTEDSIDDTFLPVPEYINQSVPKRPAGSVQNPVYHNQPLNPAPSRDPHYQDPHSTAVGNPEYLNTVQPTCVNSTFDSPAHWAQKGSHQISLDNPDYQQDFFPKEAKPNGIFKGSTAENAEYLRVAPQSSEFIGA
Assay: Inhibition of N-terminal GST tagged recombinant wild type human EGFR expressed in baculovirus infected Sf9 insect cells expression system using 5-FAM-EEPLYINSFPAKKK-CONH peptide as substrate preincubated for 10 mins followed by peptide substrate addition in presence of ATP
assay-readout: pIC50
One number for each entry, as −log10 of the molar value.

[[record]]
smiles_entry = "CC[C@]1(F)CN(c2nccc(Nc3cc4c(C(C)C)ccc(N5C[C@H](CS(C)(=O)=O)[C@H]5C)c4cn3)n2)CC[C@H]1O"
recorded_result = 6.12


Now consider a different molecule.
Reported pIC50, molecule CC(C)c1ccc(N2C[C@H](O)[C@H]2C)c2cnc(Nc3ccnc(N4CC[C@@H](O)[C@@](C)(F)C4)n3)cc12 : ____
5.65

---

Task for the reader: assign each of the following compounds its reported IC50.
Target: Epidermal growth factor receptor (Homo sapiens, UniProt P00533, L858R/T790M)
Sequence (P00533 25-1210 T790M/L858R limits assumed): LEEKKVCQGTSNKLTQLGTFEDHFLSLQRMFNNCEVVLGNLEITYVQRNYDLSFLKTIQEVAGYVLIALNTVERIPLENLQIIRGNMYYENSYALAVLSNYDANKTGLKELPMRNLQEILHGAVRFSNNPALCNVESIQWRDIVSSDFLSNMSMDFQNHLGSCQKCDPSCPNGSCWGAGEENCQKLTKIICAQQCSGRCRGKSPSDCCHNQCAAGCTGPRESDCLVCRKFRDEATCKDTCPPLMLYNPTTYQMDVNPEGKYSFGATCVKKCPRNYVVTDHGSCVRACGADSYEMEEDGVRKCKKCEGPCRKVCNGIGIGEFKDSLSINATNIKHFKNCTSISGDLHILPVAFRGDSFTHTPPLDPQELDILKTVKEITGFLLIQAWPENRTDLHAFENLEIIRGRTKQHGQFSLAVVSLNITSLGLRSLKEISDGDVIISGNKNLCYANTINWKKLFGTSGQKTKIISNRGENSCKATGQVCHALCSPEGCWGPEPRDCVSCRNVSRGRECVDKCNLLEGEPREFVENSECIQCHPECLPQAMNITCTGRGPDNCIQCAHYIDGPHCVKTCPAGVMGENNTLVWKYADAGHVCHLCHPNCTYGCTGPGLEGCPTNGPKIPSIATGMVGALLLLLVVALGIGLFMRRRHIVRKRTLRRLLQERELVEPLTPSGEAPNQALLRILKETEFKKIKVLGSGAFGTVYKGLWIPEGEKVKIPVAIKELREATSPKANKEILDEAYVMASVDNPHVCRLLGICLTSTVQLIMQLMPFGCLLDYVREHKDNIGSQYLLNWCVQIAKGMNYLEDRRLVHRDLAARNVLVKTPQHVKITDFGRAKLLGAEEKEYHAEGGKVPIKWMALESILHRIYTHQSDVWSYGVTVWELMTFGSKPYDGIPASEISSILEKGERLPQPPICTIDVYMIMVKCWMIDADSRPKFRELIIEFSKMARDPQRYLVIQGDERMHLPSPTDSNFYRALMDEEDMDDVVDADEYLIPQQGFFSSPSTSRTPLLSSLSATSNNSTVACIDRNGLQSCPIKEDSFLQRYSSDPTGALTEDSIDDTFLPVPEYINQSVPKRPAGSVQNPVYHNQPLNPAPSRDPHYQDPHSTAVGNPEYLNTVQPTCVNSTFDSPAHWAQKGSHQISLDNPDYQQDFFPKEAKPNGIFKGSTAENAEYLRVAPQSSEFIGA
Test: Inhibition of EGF stimulated EGFR L858R/T790M double mutant phosphorylation in human NCI-H1975 cells preincubated for 4 to 5 hrs followed by EGF stimulation for 10 mins by AlphaLISA method
Type: cell-based
Numbers only, in µM.

[[record]]
smiles_entry = "CC(C)c1cnc(N2CC[C@@H]2C)c2cnc(Nc3ccnc(N4CC[C@@H](O)[C@@](C)(F)C4)n3)cc12"
result_units = "µM"
recorded_result = 0.21

[[record]]
smiles_entry = "CNC(=O)C1CN(c2ncc(C(C)C)c3cc(Nc4ccnc(N5CC[C@@H](O)[C@@](C)(F)C5)n4)ncc23)C1"
result_units = "µM"
recorded_result = 0.032

[[record]]
smiles_entry = "CC(C)c1cnc(N2CCCC2)c2cnc(Nc3ccnc(N4CC[C@@H](O)[C@@](C)(F)C4)n3)cc12"
result_units = "µM"
recorded_result = 0.052


Now consider a different compound.
Reported IC50, compound COCC1CN(c2ncc(C(C)C)c3cc(Nc4ccnc(N5CC[C@@H](O)[C@@](C)(F)C5)n4)ncc23)C1 : ____
0.04

---

Task for the reader: assign each of the following compounds its reported pIC50.
Biological target: Epidermal growth factor receptor (Homo sapiens, UniProt P00533, L858R/T790M)
Experiment: Inhibition of EGF stimulated EGFR L858R/T790M double mutant phosphorylation in human NCI-H1975 cells preincubated for 4 to 5 hrs followed by EGF stimulation for 10 mins by AlphaLISA method
Type: cell-based
Give bare numbers, as −log10 of the molar value.

[[record]]
smiles_entry = "CC(C)c1ccc(N2C[C@H](CS(C)(=O)=O)[C@H]2C)c2cnc(Nc3ccnc(N4CC[C@@](C)(O)[C@@H](F)C4)n3)cc12"
assay_readout = "pIC50"
recorded_result = 8.42

[[record]]
smiles_entry = "CC(C)c1cnc(N2C[C@H](CS(C)(=O)=O)[C@H]2C)c2cnc(Nc3ccnc(N4CC[C@@H](O)[C@@](C)(F)C4)n3)cc12"
assay_readout = "pIC50"
recorded_result = 8.77

[[record]]
smiles_entry = "CNc1ncc(C(C)C)c2cc(Nc3ccnc(N4CC[C@@H](O)[C@@H](F)C4)n3)ncc12"
assay_readout = "pIC50"
recorded_result = 7.17

[[record]]
smiles_entry = "CNC(=O)c1cnc(Nc2ccnc(N3CC[C@@H](O)[C@@H](F)C3)n2)cc1NC(C)C"
assay_readout = "pIC50"
recorded_result = 6.38

[[record]]
smiles_entry = "CNC(=O)c1cnc(Nc2ccnc(N3CCC(O)CC3)n2)cc1NC(C)C"
assay_readout = "pIC50"
recorded_result = 6.04

[[record]]
smiles_entry = "COC1CN(c2ncc(C(C)C)c3cc(Nc4ccnc(N5CC[C@@H](O)[C@@](C)(F)C5)n4)ncc23)C1"
assay_readout = "pIC50"
recorded_result = 7.62


Quick request: pIC50 for each listed item, please.
1. CC(C)c1cnc(N2CC(C#N)C2)c2cnc(Nc3ccnc(N4CC[C@@H](O)[C@@](C)(F)C4)n3)cc12
2. CC(C)c1nnc(N2CC[C@H]2C)c2cnc(Nc3ccnc(N4CC[C@@H](O)[C@@](C)(F)C4)n3)cc12
3. CO[C@@H]1[C@H](O)CN(c2nccc(Nc3cc4c(C(C)C)ccc(N5C[C@H](CS(C)(=O)=O)[C@H]5C)c4cn3)n2)CC1(F)F
4. CC(C)c1ccc(N2C[C@H](O)[C@H]2C)c2cnc(Nc3ccnc(N4CC[C@@H](O)[C@@](C)(F)C4)n3)cc12

[7.77, 7.60, 8.59, 7.72]

Quick request: pIC50 for each listed item, please.
1. CC(C)c1ncc(N2CC[C@H]2C)c2cnc(Nc3ccnc(N4CC[C@@H](O)[C@@](C)(F)C4)n3)cc12
2. CC(C)c1cnc(N2CC[C@H]2C)c2cnc(Nc3ccnc(N4CC[C@@H](O)[C@@](C)(F)C4)n3)cc12
3. CC(C)c1cnc(N2CC(O)C2)c2cnc(Nc3ccnc(N4CC[C@@H](O)[C@@](C)(F)C4)n3)cc12
4. CC(C)c1cnc(N2CCC2)c2cnc(Nc3ccnc(N4CC[C@@H](O)[C@@](C)(F)C4)n3)cc12
5. CC[C@]1(F)CN(c2nccc(Nc3cc4c(C(C)C)ccc(N5C[C@H](CS(C)(=O)=O)[C@H]5C)c4cn3)n2)CC[C@H]1O
6. CC(C)c1ncc(N2C[C@H](O)[C@H]2C)c2cnc(Nc3ccnc(N4CC[C@@H](O)[C@@](C)(F)C4)n3)cc12

1. 7.64
2. 8.15
3. 7.39
4. 7.70
5. 8.74
6. 7.89

---

Test: Volume of distribution at steady state in Beagle dog at 0.5 mg/kg, iv
Type: ADME, organism-based, Canis lupus familiaris
Details: in vivo, read-out: Vdss
assay-readout: Vd
The reply should read as a number followed by its unit.

Reported Vd, molecule CO[C@@H]1CCN(c2nccc(Nc3cc4c(C(C)C)ccc(N5C[C@H](CS(C)(=O)=O)[C@H]5C)c4cn3)n2)C[C@@H]1F : ____
3.9 L/kg

---

Task for the reader: assign each of the following molecules its reported pIC50.
Target: UniProt P00533
Test: Inhibition of N-terminal GST tagged recombinant wild type human EGFR expressed in baculovirus infected Sf9 insect cells expression system using 5-FAM-EEPLYINSFPAKKK-CONH peptide as substrate preincubated for 10 mins followed by peptide substrate addition in presence of ATP
Answers are plain numbers, as −log10 of the molar value.

Quick request: pIC50 for each listed item, please.
1. CC(C)c1ncc(N2CC[C@H]2C)c2cnc(Nc3ccnc(N4CC[C@@H](O)[C@@](C)(F)C4)n3)cc12
2. CC(C)c1ncc(N2C[C@H](O)[C@H]2C)c2cnc(Nc3ccnc(N4CC[C@@H](O)[C@@](C)(F)C4)n3)cc12

[5.47, 5.38]

Quick request: pIC50 for each listed item, please.
1. CC(C)c1nnc(N2CC[C@H]2C)c2cnc(Nc3ccnc(N4CC[C@@H](O)[C@@](C)(F)C4)n3)cc12
2. CO[C@@H]1[C@H](O)CN(c2nccc(Nc3cc4c(C(C)C)ccc(N5C[C@H](CS(C)(=O)=O)[C@H]5C)c4cn3)n2)CC1(F)F
3. CC(C)c1cnc(N2CC[C@H]2C)c2cnc(Nc3ccnc(N4CC[C@@H](O)[C@@](C)(F)C4)n3)cc12
4. CC(C)c1cnc(N2CC(C#N)C2)c2cnc(Nc3ccnc(N4CC[C@@H](O)[C@@](C)(F)C4)n3)cc12
5. CC(C)c1ccc(N2C[C@H](CS(C)(=O)=O)[C@H]2C)c2cnc(Nc3ccnc(N4CC[C@@](C)(O)[C@@H](F)C4)n3)cc12

1: 5.09; 2: 6.09; 3: 5.14; 4: 5.47; 5: 5.96

Quick request: pIC50 for each listed item, please.
1. CC(C)c1cnc(N2C[C@H](CS(C)(=O)=O)[C@H]2C)c2cnc(Nc3ccnc(N4CC[C@@H](O)[C@@](C)(F)C4)n3)cc12
2. CC(C)c1cnc(N2CC(O)C2)c2cnc(Nc3ccnc(N4CC[C@@H](O)[C@@](C)(F)C4)n3)cc12

1: 6.57; 2: 5.26

---

Experiment: Apparent permeability across apical to basolateral side in MDCK-MDR1 cells
Type: ADME, cell-based, Canis lupus familiaris
Conditions: dog
Task for the reader: assign each of the following molecules its reported Papp.

As a guide, the following entries are already answered.
[[record]]
smiles_entry = "CC(C)c1ccc(N2C[C@H](CS(C)(=O)=O)[C@H]2C)c2cnc(Nc3ccnc(N4CC[C@@](C)(O)[C@@H](F)C4)n3)cc12"
recorded_result = "5 10^-6 cm/s"

[[record]]
smiles_entry = "CO[C@@H]1[C@H](O)CN(c2nccc(Nc3cc4c(C(C)C)ccc(N5C[C@H](CS(C)(=O)=O)[C@H]5C)c4cn3)n2)CC1(F)F"
recorded_result = "8 10^-6 cm/s"

[[record]]
smiles_entry = "CC(C)c1ccc(N2C[C@H](CS(C)(=O)=O)[C@H]2C)c2cnc(Nc3ccnc(N4CC[C@@H](O)[C@@](C)(F)C4)n3)cc12"
recorded_result = "9 10^-6 cm/s"

[[record]]
smiles_entry = "CC(C)c1cnc(N2C[C@H](CS(C)(=O)=O)[C@H]2C)c2cnc(Nc3ccnc(N4CC[C@@H](O)[C@@](C)(F)C4)n3)cc12"
recorded_result = "5 10^-6 cm/s"

[[record]]
smiles_entry = "CC(C)c1ccc(N2CC(CS(C)(=O)=O)C2)c2cnc(Nc3ccnc(N4CC[C@@H](O)[C@@](C)(F)C4)n3)cc12"
recorded_result = "17 10^-6 cm/s"


Quick request: Papp for each listed item, please.
1. CO[C@@H]1CCN(c2nccc(Nc3cc4c(C(C)C)ccc(N5C[C@H](CS(C)(=O)=O)[C@H]5C)c4cn3)n2)C[C@@H]1F
2. CC[C@]1(F)CN(c2nccc(Nc3cc4c(C(C)C)ccc(N5C[C@H](CS(C)(=O)=O)[C@H]5C)c4cn3)n2)CC[C@H]1O

["8 10^-6 cm/s", "6 10^-6 cm/s"]
